binders and their reported Affinity increase
target: T1, AFP158/HLA-A*02:01 complex (human); test: SPR, KD ratio to AS170036 VL1VH1;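 note: crude scFv captured on a sensor chip, peptide–HLA complex passed over at several concentrations, association then buffer dissociation, KD derived from on- and off-rates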
T1 construct: flowed over the chip in SPR; also called AFP158 pro
Respond with a number, then the unit of measure.

Consider the worked cases shown below.
binder	Affinity increase
HS57D (scFv, AS170036 VL1VH1 scFv mutein) scFv: QSALTQPRSVSGSPGQSVTISCAGTSSDVGSENYVSWYQQHPGKAPKLMIYQVNKRASGVPDRFSGSKSGNTASLTISGLQAEDEADYYCASYRSSDHNIVFGGGTKLTVLGGGGSGGGGSGGGGSEVQLVESGGGLVQPGGSLRLSCAASGFTFSSYAMSWVRQAPGKGLEWVSTINSGTGDPYYADSVKGRFTISRDNSKNTLYLQMNSLRAEDTAVYYCAKNFFDGSWFLGPPAMDYWGQGTLVTVSSHHHHHH	1.2 fold
HG56H (scFv, AS170036 VL1VH1 scFv mutein) scFv: QSALTQPRSVSGSPGQSVTISCAGTSSDVGSENYVSWYQQHPGKAPKLMIYQVNKRASGVPDRFSGSKSGNTASLTISGLQAEDEADYYCASYRSSDHNIVFGGGTKLTVLGGGGSGGGGSGGGGSEVQLVESGGGLVQPGGSLRLSCAASGFTFSSYAMSWVRQAPGKGLEWVSTINSGTHSPYYADSVKGRFTISRDNSKNTLYLQMNSLRAEDTAVYYCAKNFFDGSWFLGPPAMDYWGQGTLVTVSSHHHHHH	1.5 fold
HG108A (scFv, AS170036 VL1VH1 scFv mutein; also called AS170036 VL1VH1-VHG108A) scFv: QSALTQPRSVSGSPGQSVTISCAGTSSDVGSENYVSWYQQHPGKAPKLMIYQVNKRASGVPDRFSGSKSGNTASLTISGLQAEDEADYYCASYRSSDHNIVFGGGTKLTVLGGGGSGGGGSGGGGSEVQLVESGGGLVQPGGSLRLSCAASGFTFSSYAMSWVRQAPGKGLEWVSTINSGTGSPYYADSVKGRFTISRDNSKNTLYLQMNSLRAEDTAVYYCAKNFFDGSWFLAPPAMDYWGQGTLVTVSSHHHHHH	5.5 fold
HS57A (scFv, AS170036 VL1VH1 scFv mutein) scFv: QSALTQPRSVSGSPGQSVTISCAGTSSDVGSENYVSWYQQHPGKAPKLMIYQVNKRASGVPDRFSGSKSGNTASLTISGLQAEDEADYYCASYRSSDHNIVFGGGTKLTVLGGGGSGGGGSGGGGSEVQLVESGGGLVQPGGSLRLSCAASGFTFSSYAMSWVRQAPGKGLEWVSTINSGTGAPYYADSVKGRFTISRDNSKNTLYLQMNSLRAEDTAVYYCAKNFFDGSWFLGPPAMDYWGQGTLVTVSSHHHHHH	1.2 fold

From here, focus on the item given below.
[Q] Answer with reported Affinity increase of HS57K (scFv, AS170036 VL1VH1 scFv mutein; also called AS170036 VL1VH1-VHS57K) scFv: QSALTQPRSVSGSPGQSVTISCAGTSSDVGSENYVSWYQQHPGKAPKLMIYQVNKRASGVPDRFSGSKSGNTASLTISGLQAEDEADYYCASYRSSDHNIVFGGGTKLTVLGGGGSGGGGSGGGGSEVQLVESGGGLVQPGGSLRLSCAASGFTFSSYAMSWVRQAPGKGLEWVSTINSGTGKPYYADSVKGRFTISRDNSKNTLYLQMNSLRAEDTAVYYCAKNFFDGSWFLGPPAMDYWGQGTLVTVSSHHHHHH
[A] 4.4 fold
